System: Plasmodium falciparum
Test: Confirmatory screen in NF54 nanoGlo assay, in single point, at 2uM, 72h
Type: functional, Erythrocyte
Conditions: timepoint 72 hour
The campaign covered roughly 4,800 compounds. About 420 (8.8%) showed an effect of 50% or more. What follows is part of a selection rich in strong results, with near analogues and random picks from the rest.
Recorded measurements of % Inhibition, one per entry
Express it in %; write the number only.

For CCOC(=O)n1c(=O)[nH]c2ccc(Br)cc21 , what is its reported % Inhibition? -10

---
For Cc1c(C)n(C[C@@H](O)CNC2CCCC2)c2c(Cl)cccc12 , what is its reported % Inhibition? -1

For CCN(CC(C)(C)O)C(=O)C1CCCCCC1 , what is its reported % Inhibition? -9

For Cc1nc2ccccc2n1CC1CCCN1C(=O)C1CCc2cccnc21 (stereo not given) , what is its reported % Inhibition? -7

For COc1ccccc1CNC(=O)c1cnn2c(-c3ccc(Cl)cc3)ccnc12 , what is its reported % Inhibition? -4

For CN(C)C(=O)c1cc2c(s1)CC[C@H](C(=O)NCCN1CCOCC1)C2 , what is its reported % Inhibition? 6

For CC(NCC(O)Cn1c(-c2ccccc2)c(-c2ccccc2)c2ccc3ccccc3c21)c1ccccc1 (stereo not given) , what is its reported % Inhibition? 88

For Cc1cccc(C(=O)Nc2c(C#N)c(-c3ccccc3)c(-c3ccccc3)n2Cc2ccccc2)c1 , what is its reported % Inhibition? 3

For Cc1c(C)n(C[C@H](O)Cn2c(C(F)(F)F)nc3ccccc32)c2c(Cl)cccc12 , what is its reported % Inhibition? -6

For Cc1c(C)n(CC(O)CNC(C)c2ccccc2)c2c(Cl)cccc12 (stereo not given) , what is its reported % Inhibition? 64
